Kindly supply the reported IC50 values for the records listed here.
Molecular target: Orexin receptor type 2 (Homo sapiens, UniProt O43614)
Sequence (O43614 whole entry): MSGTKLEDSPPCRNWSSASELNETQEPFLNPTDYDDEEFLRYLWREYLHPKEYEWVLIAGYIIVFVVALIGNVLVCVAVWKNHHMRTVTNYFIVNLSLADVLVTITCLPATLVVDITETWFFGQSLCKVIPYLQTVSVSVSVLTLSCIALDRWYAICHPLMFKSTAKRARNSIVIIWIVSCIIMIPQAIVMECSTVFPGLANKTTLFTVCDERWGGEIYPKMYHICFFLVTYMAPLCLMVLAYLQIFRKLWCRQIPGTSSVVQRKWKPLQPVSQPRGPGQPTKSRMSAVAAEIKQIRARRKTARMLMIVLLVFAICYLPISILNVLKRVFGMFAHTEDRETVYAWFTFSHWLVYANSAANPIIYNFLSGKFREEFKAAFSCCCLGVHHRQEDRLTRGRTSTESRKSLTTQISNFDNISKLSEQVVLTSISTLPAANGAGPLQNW
Assay: Counterscreen assay for antagonists of the orexin 1 receptor (OX1R; HCRTR1): Homogeneous Time Resolved Fluorescence (HTRF)-based cell-based dose response assay for antagonists of the orexin 2 receptor (OX2R; HCRTR2), run by assay provider.
Format: functional
Activity calls are given as the source filed them.

Record request: IC50 value, item CSc1cccc(NC(=O)C2CCCN(S(=O)(=O)c3ccc(F)cc3)C2)c1 (centres undefined)
14.2 µM (inactive)

Fill in the blank: the reported IC50 of Cc1cccc(NC(=O)NNC(=O)c2cc(-c3ccccc3Cl)nc3ccccc23)c1 is ____.
27.1 µM (inactive)

// lookup IC50 for CCn1c2ccccc2c2cc(NC(=O)c3cccc(OC)c3OC)ccc21
> 50 µM (inactive)

Could you share which IC50 value was measured for C=CCn1c(SCC(=O)Nc2cc3oc4ccccc4c3cc2OC)nnc1-c1cnccn1 ?
> 50 µM (inactive)

* * *

molecular target: Kappa-type opioid receptor (Homo sapiens, UniProt P41145); format: functional
Sequence (P41145 whole entry): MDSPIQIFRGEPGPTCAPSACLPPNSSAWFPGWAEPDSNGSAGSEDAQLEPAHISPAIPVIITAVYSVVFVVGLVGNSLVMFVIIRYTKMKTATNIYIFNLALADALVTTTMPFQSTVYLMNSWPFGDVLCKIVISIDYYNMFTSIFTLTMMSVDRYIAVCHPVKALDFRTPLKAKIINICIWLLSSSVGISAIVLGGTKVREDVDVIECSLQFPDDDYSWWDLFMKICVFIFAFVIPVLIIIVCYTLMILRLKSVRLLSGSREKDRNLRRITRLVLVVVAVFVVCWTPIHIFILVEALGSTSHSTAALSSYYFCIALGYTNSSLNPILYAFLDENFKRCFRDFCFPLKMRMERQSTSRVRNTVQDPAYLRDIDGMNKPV
Readout: EC50 (nM)
State the answer as a number, implicitly in nM.

I am curious: what EC50 value has been reported for COc1ccc(C[C@@H]2CN3C(=NC[C@@H]3C)N2CCNC(=O)c2ccc(C)c(Br)c2)cc1 ?
118

* * *

target: UniProt P08659; experiment: firefly luciferase enzyme inhibitors, dose response, biochemical, luminescence (AID 1891)
Sequence (P08659 whole entry): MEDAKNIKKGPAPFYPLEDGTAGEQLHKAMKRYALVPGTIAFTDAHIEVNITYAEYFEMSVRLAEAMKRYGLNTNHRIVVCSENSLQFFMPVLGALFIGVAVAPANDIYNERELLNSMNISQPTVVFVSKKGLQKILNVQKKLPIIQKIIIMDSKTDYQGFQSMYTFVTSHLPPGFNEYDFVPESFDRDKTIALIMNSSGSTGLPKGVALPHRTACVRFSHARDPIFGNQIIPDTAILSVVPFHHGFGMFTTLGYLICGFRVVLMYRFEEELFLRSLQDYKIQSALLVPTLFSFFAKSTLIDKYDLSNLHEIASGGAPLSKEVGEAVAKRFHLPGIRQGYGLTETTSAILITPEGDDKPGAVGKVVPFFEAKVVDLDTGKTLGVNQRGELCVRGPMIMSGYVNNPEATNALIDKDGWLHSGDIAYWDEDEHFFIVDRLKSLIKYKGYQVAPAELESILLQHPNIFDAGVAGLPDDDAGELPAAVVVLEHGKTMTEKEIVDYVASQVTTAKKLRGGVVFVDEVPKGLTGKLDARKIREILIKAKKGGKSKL
The source made the active and inactive calls.
Consider the following molecules; for each one, report its EC50.

Given the entry COC(=O)c1c(C)[nH]c(C(=O)OCC(=O)N2c3ccccc3NC(=O)C2(C)C)c1C , report its measured EC50.
> 112 µM (not active)

// returns reported EC50 for input Cc1occc1C(=O)O/N=C(\N)c1ccccc1
3.91 µM (active)

Consider the molecule COc1cc2c(cc1OC)-c1cc(Nc3cccc(F)c3)nc(=O)n1CC2 and give its measured EC50.
> 112 µM (not active)

Record request: EC50 value, item Cc1cccc(C(=N)NOC(=O)c2ccc3c(c2)OCO3)c1
0.838 µM (active)

Look up EC50: Cc1ccc(NC(=O)COC(=O)[C@H](C)NC(=O)c2ccccc2)cc1S(=O)(=O)N1CCOCC1
> 112 µM (not active)

What measured EC50 goes with COc1ccc(NC(=O)/C(Cl)=C(/Cl)[S+]([O-])Cc2ccccc2)cn1 (stereo unspecified) ?
> 112 µM (not active)

I'd like to know its EC50. The molecule in question is COCCN1CCN(C(=O)c2ccc3nc(Cc4ccccc4F)oc3c2)CC1
> 112 µM (not active)

Query (molecule): CCc1nnc(NS(=O)(=O)c2ccc(NCc3ccccc3O)cc2)s1 ; field requested: EC50
> 112 µM (not active)

Given the molecule CCOC(=O)c1c(N)sc(C(=O)Nc2ccc3c(c2)OCO3)c1C , what is its reported EC50?
1.28 µM (active)

Data request, read-out EC50, for O=C(COC(=O)c1cnc(O)nc1O)Nc1ccccc1Br
> 112 µM (not active)

Record request: EC50 value, item CN(c1ccc(C(=O)Nc2ccc3c(c2)OCO3)cc1)S(C)(=O)=O
26.3 µM (active)

* * *

target: Cytochrome P450 2C19 (Homo sapiens, UniProt P33261); assay: Cytochrome panel assay with activity outcomes. Panel member name: p450-cyp2c19 Compounds with AC50 equal or less than 10 uM are considered active; format: functional; details: read-out: AC50
Sequence (P33261 whole entry): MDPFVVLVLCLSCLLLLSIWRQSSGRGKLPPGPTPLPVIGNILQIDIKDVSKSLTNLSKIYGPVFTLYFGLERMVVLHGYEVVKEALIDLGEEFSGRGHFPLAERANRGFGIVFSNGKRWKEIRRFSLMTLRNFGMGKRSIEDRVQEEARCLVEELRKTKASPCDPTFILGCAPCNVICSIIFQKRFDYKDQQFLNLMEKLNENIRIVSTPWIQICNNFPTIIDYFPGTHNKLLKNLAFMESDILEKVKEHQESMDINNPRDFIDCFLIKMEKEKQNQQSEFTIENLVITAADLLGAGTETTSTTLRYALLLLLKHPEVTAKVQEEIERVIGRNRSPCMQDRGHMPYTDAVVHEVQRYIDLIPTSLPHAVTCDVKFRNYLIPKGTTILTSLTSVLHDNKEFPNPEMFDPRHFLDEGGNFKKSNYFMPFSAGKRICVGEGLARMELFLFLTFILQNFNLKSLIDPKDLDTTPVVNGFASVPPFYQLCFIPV
Give AC50 for every item shown.

Lab note: need AC50 with Cytochrome P450 2C19 (Homo sapiens, UniProt P33261) for entry NC[C@@H](O)CSCc1ccc(Cl)cc1 , please look it up.
0.1 µM (inconclusive)

API: value(readout=AC50, system=Cytochrome P450 2C19 (Homo sapiens, UniProt P33261)) for record COc1ccc2nc(C)cc(SCC(=O)NNC(=O)COc3ccccc3)c2c1
3.55 µM (inconclusive)

Request - read-out AC50 | tested on Cytochrome P450 2C19 (Homo sapiens, UniProt P33261) | compound CC(C)n1c(=O)c2c(=O)cc(O)oc2c2ccccc21
10 µM (inconclusive)

Quick check: AC50 on Cytochrome P450 2C19 (Homo sapiens, UniProt P33261), item Cn1cccc1C(=O)N1CCC[C@@]2(CCN(C(c3ccccc3)c3ccccc3)C2)C1 ?
25.1 µM (inconclusive)

Form entry - test system: Cytochrome P450 2C19 (Homo sapiens, UniProt P33261); read-out: AC50; compound: COc1ccc(CNc2ccnc(-c3ccc(C(=O)N(C)C)cc3)n2)c(OC)c1
20 µM (inconclusive)

// lookup AC50 | system=Cytochrome P450 2C19 (Homo sapiens, UniProt P33261) | key= CC(=O)NC1(c2cccc(F)c2)CCN(CC(=O)NC2CCCCC2)CC1
3.55 µM (inconclusive)

Item CC1CCN(CCCCOc2ccccc2[N+](=O)[O-])CC1 with Cytochrome P450 2C19 (Homo sapiens, UniProt P33261) - AC50?
15.8 µM (inconclusive)

Observed AC50 on Cytochrome P450 2C19 (Homo sapiens, UniProt P33261) for COc1ccc2c(c1)-c1ccccc1S(=O)(=O)N2C(C)=O , please.
25.1 µM (inconclusive)

Form entry - test system: Cytochrome P450 2C19 (Homo sapiens, UniProt P33261); read-out: AC50; compound: O=C1C2C3C=CC([C@@H]2C(=O)N1C1CCCCC1)[C@H]1C(=O)N(C2CCCCC2)C(=O)C31 (stereo not given in full)
17.8 µM (inconclusive)

Request body: readout AC50, system Cytochrome P450 2C19 (Homo sapiens, UniProt P33261), query COC(=O)[C@@]1(Cc2ccc(F)cc2)[C@H]2c3cc(C(=O)N4CCCC4)n(Cc4ccc(Cl)c(C(F)(F)F)c4)c3C[C@H]2CN1C(=O)c1ccccc1 . Return the value.
31.6 µM (inconclusive)

Value wanted: AC50 (Cytochrome P450 2C19 (Homo sapiens, UniProt P33261)) of entry COc1ccc(N2CCN(CCNC(=O)C3CCN(S(=O)(=O)c4cccs4)CC3)CC2)cc1
28.2 µM (inconclusive)

Provide the documented AC50 with Cytochrome P450 2C19 (Homo sapiens, UniProt P33261) as the system for O=C(N/N=C/c1ccco1)/C(=C/c1cccc([N+](=O)[O-])c1)NC(=O)c1ccccc1
1 µM (inconclusive)

Lab note: need AC50 for COCCNc1nc(-c2cccc(OC)c2)nc2ccccc12 on Cytochrome P450 2C19 (Homo sapiens, UniProt P33261), anyone have it?
31.6 µM (inconclusive)

Test system Cytochrome P450 2C19 (Homo sapiens, UniProt P33261); read-out AC50; what value for C(=N\N(c1ccccc1)c1ccccc1)/c1ccc2c(c1)OCO2 ?
2.51 µM (inconclusive)

Item: O=C(Cn1cccc1)NC1CCCCCC1 Test system: Cytochrome P450 2C19 (Homo sapiens, UniProt P33261) Read-out: AC50 Value: ?
6.31 µM (inconclusive)

* * *

target: Paired box protein Pax-8 (Homo sapiens); test: inhibitors of PAX8-driven TPO luciferase reporter, dose response, RMG-I cells, cherry-pick (AID 687027); type: functional, cell-based;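 note: luciferase reporter driven by Pax8 target thyroperoxidase promoter measured by SteadyGlo luminescence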
Sequence (Q06710 whole entry): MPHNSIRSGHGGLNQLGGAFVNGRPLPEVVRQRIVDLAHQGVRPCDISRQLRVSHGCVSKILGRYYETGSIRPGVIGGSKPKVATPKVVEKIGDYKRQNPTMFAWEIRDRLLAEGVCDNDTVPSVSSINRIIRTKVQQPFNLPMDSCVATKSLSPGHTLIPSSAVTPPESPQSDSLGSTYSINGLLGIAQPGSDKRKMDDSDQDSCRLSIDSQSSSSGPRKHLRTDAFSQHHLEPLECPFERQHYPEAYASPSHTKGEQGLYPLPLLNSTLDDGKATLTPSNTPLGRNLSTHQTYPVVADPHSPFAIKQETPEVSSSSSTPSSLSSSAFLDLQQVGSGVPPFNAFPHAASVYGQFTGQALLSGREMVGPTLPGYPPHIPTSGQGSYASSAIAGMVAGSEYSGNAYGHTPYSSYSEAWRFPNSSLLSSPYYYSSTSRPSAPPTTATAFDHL
Activity calls are given as the source filed them.
Readout: AC50

So what AC50 did C[C@H](CO)N1C[C@H](C)[C@@H](CN(C)Cc2ccc(C(F)(F)F)cc2)Oc2ccc(NS(=O)(=O)c3ccccc3)cc2CC1=O get with Paired box protein Pax-8 (Homo sapiens)?
10.1 µM (active)

Write down the reported AC50 of COc1cccc(N2CCN(c3ncnc4c3cnn4-c3ccc(C)cc3C)CC2)c1 , test system: Paired box protein Pax-8 (Homo sapiens).
6.38 µM (active)

Form field - read-out: AC50; system: Paired box protein Pax-8 (Homo sapiens); submitted item: COC(=O)[C@]12CCCCC=C1N(Cc1cccc3ccccc13)C(=O)[C@H](CC(=O)N1CCN(C(=O)c3ccco3)CC1)C2
1.59 µM (active)

AC50 of O=C(Nc1ccccc1)N1C[C@@H]2N[C@H](C1)[C@@H]2c1ccc(/C=C/c2ccccc2)cc1 on Paired box protein Pax-8 (Homo sapiens)?
22.6 µM (active)

For Paired box protein Pax-8 (Homo sapiens), provide AC50 of Cn1cnc(S(=O)(=O)N2C[C@@H]3N[C@H](C2)[C@@H]3c2ccc(-c3ccccc3F)cc2)c1 please.
4.26 µM (active)

What AC50 appears in the records for this molecule with Paired box protein Pax-8 (Homo sapiens)? COc1ccc(N2C(=O)CC(Sc3nnc(-c4ccccc4)o3)C2=O)cc1 (stereo not drawn)
10.4 µM (active)

Recorded AC50 for C[C@H](CO)N1C[C@H](C)[C@H](CN(C)C(=O)NC2CCCCC2)Oc2cc(C#Cc3cccc(F)c3)ccc2S1(=O)=O with Paired box protein Pax-8 (Homo sapiens), please?
6.2 µM (active)

# query: AC50 | item CN(C)CC(C(=O)Cc1ccccc1)c1ccccc1 (stereo not drawn) | system: Paired box protein Pax-8 (Homo sapiens)
1.71 µM (active)
